# procedure_text: cytotoxicity in HEK-293T cells, dose response, cytotoxicity control for TCR NF-kB inhibitor project, luminescence, T-cell screen hits (AID 489026);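 also: cells exposed to compound about 14 hours before the viability readout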
# Type: functional, cell-based
Active and inactive are the calls of the source.
The compounds listed here are annotated with their IC50.
assay_endpoint: IC50

{"columns": ["compound", "result"],
 "data": [
  ["COc1ccc(S(=O)(=O)Nc2cccc(-c3ccc4nncn4n3)c2)cc1F", "> 80 µM (inactive)"],
  ["Cn1cc(/C=N/n2cnc3scc(-c4ccc(Cl)cc4)c3c2=O)c2ccccc21", "> 80 µM (inactive)"],
  ["Oc1ccc(Nc2nc3ccccc3nc2Nc2ccc(O)cc2)cc1", "67.3 µM (inactive)"],
  ["Cc1ccc(C)c(N=Nc2ccc(O)c3ncccc23)c1", "> 80 µM (inactive)"],
  ["CCOc1ccc2c(c1)OC(c1ccc(C)cc1)(C(F)(F)F)NC2=O (stereo not given)", "> 80 µM (inactive)"]
]}

---

Overview of reported IC50 across a group of molecules:
# procedure_text: cells
# Assay type: functional
Calls of active or inactive are those of the source.
assay_endpoint: IC50

{"columns": ["smiles_input", "assay_endpoint", "result"],
 "data": [
  ["O=C(N/N=C/c1ccc([N+](=O)[O-])s1)c1cccc(Br)c1", "IC50", "4.37 µM (active)"],
  ["CCOC(=O)N1CCN(Cc2cc(Cl)c3cccnc3c2O)CC1", "IC50", "10.9 µM (active)"],
  ["Cc1occc1-c1nnc(-c2cc([N+](=O)[O-])cc([N+](=O)[O-])c2)o1", "IC50", "1.37 µM (active)"],
  ["Cc1c(CN2CCC(CO)(CCOc3ccccc3)CC2)[nH]c2c(Cl)cccc12", "IC50", "6.5 µM (active)"]
]}

---

In this section, each of the molecules is paired with its reported EC50.
# study_target: Streptokinase A (Streptococcus pyogenes serotype M1)
# Sequence (P10520 whole entry): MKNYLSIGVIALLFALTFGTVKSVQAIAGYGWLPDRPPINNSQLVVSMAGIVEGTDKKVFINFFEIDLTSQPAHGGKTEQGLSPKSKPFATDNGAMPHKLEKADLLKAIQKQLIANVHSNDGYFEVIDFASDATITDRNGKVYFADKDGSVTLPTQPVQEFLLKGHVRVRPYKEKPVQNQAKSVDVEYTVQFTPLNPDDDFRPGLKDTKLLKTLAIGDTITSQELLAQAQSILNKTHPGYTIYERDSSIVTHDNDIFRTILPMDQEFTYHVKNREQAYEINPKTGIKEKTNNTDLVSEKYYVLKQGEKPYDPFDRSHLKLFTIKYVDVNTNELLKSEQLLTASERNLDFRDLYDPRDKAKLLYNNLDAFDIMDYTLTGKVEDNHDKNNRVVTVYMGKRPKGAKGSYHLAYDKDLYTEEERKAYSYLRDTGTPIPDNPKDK
# procedure_text: S. pyogenes streptokinase expression inhibitors, potency, dose response, plasminogen activation absorbance, OD405 (AID 1914);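 also: secreted streptokinase activity via plasminogen activation per viability signal from cell pellet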
# Assay type: functional, Streptococcus pyogenes M1 GAS
Calls of active or inactive are those of the source.

{"columns": ["molecule", "EC50"],
 "data": [
  ["COc1ccc(-c2nc(NC(C)=O)sc2-c2ccc(OC)cc2)cc1", "3.44 µM (active)"],
  ["O=C(COc1ccc([N+](=O)[O-])cc1)Nc1nc(-c2ccccn2)cs1", "> 150 µM (not active)"],
  ["Cc1ccc(/C=C/C(=O)c2ccccc(=O)c2O)c(C)c1", "> 150 µM (not active)"],
  ["CCOC(=O)c1sc2ncnc(N3CCN(c4ccc(OC)cc4)CC3)c2c1C", "> 150 µM (not active)"],
  ["CCN(CC)CCNC(=O)c1ccc2c(c1NCCO)C(=O)c1ccccc1C2=O", "> 150 µM (not active)"],
  ["CCc1ccc(-c2cc(C)no2)cc1S(=O)(=O)Nc1cccc(CN2CCCC2)c1", "> 150 µM (not active)"],
  ["COc1cc(C)ccc1OCCCOc1ccccc1Br", "> 150 µM (not active)"],
  ["O=C(Nc1ccc(Cl)c(Cl)c1)O/N=C/c1ccncc1", "> 150 µM (not active)"],
  ["CC1(C)Cc2c(cnn2-c2ccccc2)-c2c1c1ccccc1n2CC(O)CCl (stereo unspecified)", "13.7 µM (active)"],
  ["O=C(CN1C(=O)S/C(=C\\C=C\\c2ccccc2)C1=O)Nc1ccccc1C(=O)O", "4.37 µM (active)"],
  ["O=C1C=C(NC(=O)Nc2ccc(Cl)c(Cl)c2)CCC1", "> 150 µM (not active)"]
]}
